# measurementProtocol: Human HepG2 cell viability assay in 384 well format
# Assay type: toxicity, cell-based
# Parameters: dose 125 nL, time 70.5 hour; concentration not given beside the values
# statedConditions: HepG2 cells, read-out: Inhibition
Exercise: for every item that follows, state its recorded cytotoxicity at 70.5 h.
Answers are plain numbers, in %.

CC(c1cccc(O)c1)N(C)S(=O)(=O)c1cccnc1 (stereo unspecified)	4.03
NC(=O)CN1CCCN(C(=O)Cc2ccc(F)cc2)CC1	-13.3

For each listed entry, give its cytotoxicity at 70.5 h.
1. OCCNc1nccc(-c2c[nH]nc2-c2cccnc2)n1
2. CN1CCN(C(=O)N2C[C@H]3CC[C@@H]2CN(Cc2ccccc2)C3)CC1
3. CCCc1cc(NCc2cc(C)on2)n2nccc2n1
4. CCCn1c(=O)n(CCC(=O)N(C)Cc2ccc(C)o2)c2ccccc21
5. COc1ccc(CC(=O)N2CCN(Cc3ccco3)C[C@@H]2C)cc1OC
6. Cc1cc(C(N)=O)nc(C2(C)CCCN2Cc2cnn(C)c2)n1 (stereo unspecified)
7. CCn1ccnc1CN1CCN(CCOc2ccccc2C#N)CC1

Key:
1: -3.73; 2: -18.1; 3: 14.2; 4: -4.98; 5: -3.94; 6: -4.52; 7: -19.6

For each listed entry, give its cytotoxicity at 70.5 h.
1. CN(C)C(=O)COCC1CN(CC2CCOCC2)Cc2ncn(C)c21 (stereo unspecified)
2. Cc1ccc(-c2noc(C3CCN3C(=O)c3c(C)noc3C)n2)s1 (stereo unspecified)

Key:
1. -1.41
2. -3.14
